The values you see were collected from ChEMBL document CHEMBL1126089.

# target or test system: Adenosine receptor A1 (Rattus norvegicus, UniProt P25099)
# Sequence (P25099 whole entry): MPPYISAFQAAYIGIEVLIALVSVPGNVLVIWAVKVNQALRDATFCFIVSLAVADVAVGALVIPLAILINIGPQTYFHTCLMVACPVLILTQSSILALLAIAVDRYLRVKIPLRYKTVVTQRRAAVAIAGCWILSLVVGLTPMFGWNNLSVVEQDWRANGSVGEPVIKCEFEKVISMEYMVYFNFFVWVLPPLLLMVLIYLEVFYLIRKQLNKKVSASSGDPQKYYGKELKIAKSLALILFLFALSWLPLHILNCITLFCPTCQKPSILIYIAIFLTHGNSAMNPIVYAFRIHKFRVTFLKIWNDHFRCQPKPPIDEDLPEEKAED
# test description: Inhibition of adenylate cyclase via adenosine A1 receptors in rat fat cell membranes
# Assay type: functional, Membrane
pIC50: −log10 of the molar value.

molecule smiles | pIC50
CCCCCC#Cc1nc(N)c2ncn([C@@H]3O[C@H](CO)[C@@H](O)[C@H]3O)c2n1 | 5.47
CCCCC#Cc1nc(N)c2ncn([C@@H]3O[C@H](C(=O)NCC)[C@@H](O)[C@H]3O)c2n1 | 5.36
CCCCC#Cc1nc(N)c2ncn([C@@H]3O[C@H](CO)[C@@H](O)[C@H]3O)c2n1 | 5.64
CCCC#Cc1nc(N)c2ncn([C@@H]3O[C@H](CO)[C@@H](O)[C@H]3O)c2n1 | 5.52
CCCCCCC#Cc1nc(N)c2ncn([C@@H]3O[C@H](CO)[C@@H](O)[C@H]3O)c2n1 | 5.54

====

The reader will find Ki measurements below, all made with Adenosine A2 receptor (Homo sapiens, UniProt P29275+P29274).

molecule smiles | Ki, nM
CCCCCC#Cc1nc(N)c2ncn([C@@H]3O[C@H](CO)[C@@H](O)[C@H]3O)c2n1 | 20.8
CCCC#Cc1nc(N)c2ncn([C@@H]3O[C@H](CO)[C@@H](O)[C@H]3O)c2n1 | 7.3
CCCCCCC#Cc1nc(N)c2ncn([C@@H]3O[C@H](CO)[C@@H](O)[C@H]3O)c2n1 | 39.9
CCCCC#Cc1nc(N)c2ncn([C@@H]3O[C@H](C(=O)NCC)[C@@H](O)[C@H]3O)c2n1 | 5.7

====

Item-by-item account of pKi
# target or test system: Adenosine receptor A1 (Rattus norvegicus, UniProt P25099)
# test description: Binding affinity against high affinity component of Adenosine A1 receptor from rat brain membranes using [3H]-DPCPX
# Format: cell membranes, Membrane
pKi: −log10 of the molar value.

compound | target or test system | pKi
CCCC#Cc1nc(N)c2ncn([C@@H]3O[C@H](C(=O)NCC)[C@@H](O)[C@H]3O)c2n1 | Adenosine receptor A1 (Rattus norvegicus, UniProt P25099) | 7.48
CCCCCC#Cc1nc(N)c2ncn(C3O[C@H](C(=O)NCC)[C@@H](O)[C@H]3O)c2n1 (stereo partly drawn) | Adenosine receptor A1 (Rattus norvegicus, UniProt P25099) | 6.77
CCCCCCC#Cc1nc(N)c2ncn(C3O[C@H](C(=O)NCC)[C@@H](O)[C@H]3O)c2n1 (stereo partly drawn) | Adenosine receptor A1 (Rattus norvegicus, UniProt P25099) | 7.17

====

Measured pKi by item
# target or test system: Adenosine receptor A1 (Rattus norvegicus)
pKi: −log10 of the molar value.
property measured: pKi

molecule smiles | property measured | data value
CCCCCCC#Cc1nc(N)c2ncn([C@@H]3O[C@H](CO)[C@@H](O)[C@H]3O)c2n1 | pKi | 7.60
CCCCCC#Cc1nc(N)c2ncn([C@@H]3O[C@H](CO)[C@@H](O)[C@H]3O)c2n1 | pKi | 7.55
CCCC#Cc1nc(N)c2ncn([C@@H]3O[C@H](CO)[C@@H](O)[C@H]3O)c2n1 | pKi | 7.67
CCCCC#Cc1nc(N)c2ncn([C@@H]3O[C@H](C(=O)NCC)[C@@H](O)[C@H]3O)c2n1 | pKi | 7.36
CCCCC#Cc1nc(N)c2ncn([C@@H]3O[C@H](CO)[C@@H](O)[C@H]3O)c2n1 | pKi | 7.80
